B1: Serine/threonine-protein kinase A-Raf, residues 21 to 89; numbered along this chain, P10398 (parent)
chain: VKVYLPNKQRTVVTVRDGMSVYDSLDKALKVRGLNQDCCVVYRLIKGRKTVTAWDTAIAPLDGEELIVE

- Variants of: B1
- Assay Comment: abundance fitness (aPCA) (normalised: wild type 0, dead -1); higher = more abundant; growth selection in yeast, the domain comes from the species named
- Stated Conditions: Homo sapiens
Quantity Name: abundance fitness
Could you keep your reply to the number by itself?

Reference set (6 entries):
> print(dat)
   mutant  meas.value
1    D17E      -0.032
2    L34W       -0.27
3    V31N      -0.073
4    D17T      -0.178
5    Y22E      -0.144
6     Q9A      -0.198

// abundance fitness lookup, variant = W54T , result: -0.797

// abundance fitness lookup, variant = W54E , result: -0.96

// abundance fitness lookup, variant = E69R , result: -0.635

// abundance fitness lookup, variant = T14G , result: -0.295

// abundance fitness lookup, variant = N35K , result: -0.063

// abundance fitness lookup, variant = Y42F , result: -0.004

// abundance fitness lookup, variant = G33P , result: -0.953

// abundance fitness lookup, variant = G47R , result: -0.841

// abundance fitness lookup, variant = P6S , result: -0.233

These data points were gathered from the Human Domainome abundance scans (Beltran et al. 2025).
